- Study Target: human BAFF (human, UniProt Q9Y275 82-285, limits assumed)
- Sequence (Q9Y275 82-285 limits assumed): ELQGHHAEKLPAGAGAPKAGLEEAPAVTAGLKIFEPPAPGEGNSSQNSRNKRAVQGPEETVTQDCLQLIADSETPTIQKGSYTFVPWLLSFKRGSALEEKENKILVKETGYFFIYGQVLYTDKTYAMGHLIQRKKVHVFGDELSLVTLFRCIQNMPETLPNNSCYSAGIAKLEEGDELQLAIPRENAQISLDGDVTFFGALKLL
- Assay Details: shotgun scan, phage display
Quantity Name: F (BAFF)
API note: the answer field is a bare number with no unit suffix.

SLSCRAEQGKFYDHLLRDCISCASICGQHPKQCAYFCENKLR (receptor, phage library variant, format as m9) [TACI_d2 K73A] = 2

Lookup: Requested field: F (BAFF). Item: SLSCRKEQGTFYDHLLRDCISCASICGQHPKQCAYFCENKLR (receptor, phage library variant, format as m9) [TACI_d2 K77T]
Found: 0.6

Lookup: Same again, this time with SLSCRKEQGKFYDHLLRDCISCASICGQHPKQCAYFCENKLA (receptor, phage library variant, format as m9) [TACI_d2 R109A]
Found: 0.9

Lookup: Same again, this time with SLSCRKEQGKVYDHLLRDCISCASICGQHPKQCAYFCENKLR (receptor, phage library variant, format as m9) [TACI_d2 F78V]
Found: 0.8

Data origin, for the record: patent US20080181886A1
